Tested system: Peptide 1: Biotin-…-[Tyr(PC)]-acid
Sequence (peptide, as listed by the source): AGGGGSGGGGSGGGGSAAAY
Method: scFv ELISA
Can you tell me OD450 for the items I'm about to list?
Please give a number only; it is taken to be in OD450.

Name the recorded OD450 of the item PcOxP_DB04_G06 (scFv, V domains shown, scFv in periplasmic extract) VH: EVQLLESGGGLVQPGGSLRLSCAASGFTFSDFYMEWVRQAPGKGLEWVAASRWKANDYTTEYADSVKGRFTISRDNSKNTLYLQMNSLRAEDTAVYYCARDYYESSYWYFDVWGQGTLVTVSS VL: DIQMTQSPSSLSASVGDRVTITCTASQSLYSSKHKVHYLAWYQQKPGKAPKLLIYGASNRYIGVPSRFSGSGSGTDFTLTISSLQPEDFATYYCAQFYVYPLTFGGGTKVEIK in your answer.
1.03

Provide only the value of recorded OD450 for PcOxP_DB02_E08 (scFv, V domains shown, scFv in periplasmic extract) VH: EVQLLESGGGLVQPGGSLRLSCAASGFTFSDDYMEWVRQAPGKGLEWVAATRNKANDYTTEYADSVKGRFTISRDNSKNTLYLQMNSLRAEDTAVYYCARDYYGSSYWYFDSWGQGTLVTVSS VL: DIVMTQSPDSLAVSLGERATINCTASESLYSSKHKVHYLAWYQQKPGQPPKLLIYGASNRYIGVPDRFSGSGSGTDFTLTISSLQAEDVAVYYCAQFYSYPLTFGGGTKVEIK
0.24

Name the recorded OD450 of the binder listed here: PcOxP_DB02_E01 (scFv, V domains shown, scFv in periplasmic extract) VH: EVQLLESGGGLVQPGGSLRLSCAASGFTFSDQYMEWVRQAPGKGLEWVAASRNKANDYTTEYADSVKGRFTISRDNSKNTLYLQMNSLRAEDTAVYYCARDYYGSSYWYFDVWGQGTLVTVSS VL: DIQMTQSPSSLSASVGDRVTITCTASESLYSSKHKVHYLAWYQQKPGKAPKLLIYGASGRYIGVPSRFSGSGSGTDFTLTISSLQPEDFATYYCAQFYSYPLTFGGGTKVEIK
0.43
